Target: CYP2D6 (Homo sapiens, UniProt P10635)
Sequence (P10635 whole entry): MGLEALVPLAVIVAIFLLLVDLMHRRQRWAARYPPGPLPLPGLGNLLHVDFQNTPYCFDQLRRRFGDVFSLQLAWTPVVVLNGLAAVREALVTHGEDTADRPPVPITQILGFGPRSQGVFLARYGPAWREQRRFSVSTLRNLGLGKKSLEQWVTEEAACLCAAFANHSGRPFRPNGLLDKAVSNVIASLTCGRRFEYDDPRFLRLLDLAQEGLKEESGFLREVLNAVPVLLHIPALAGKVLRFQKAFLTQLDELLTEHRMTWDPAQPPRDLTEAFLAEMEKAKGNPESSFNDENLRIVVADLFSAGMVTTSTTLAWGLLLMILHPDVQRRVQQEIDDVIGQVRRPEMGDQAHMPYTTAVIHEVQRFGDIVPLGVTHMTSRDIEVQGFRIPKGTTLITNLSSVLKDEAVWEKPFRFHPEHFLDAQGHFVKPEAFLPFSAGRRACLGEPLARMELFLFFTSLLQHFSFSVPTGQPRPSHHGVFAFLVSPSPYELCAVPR
Experiment: CYP2D6 inhibition assay (bufuralol, pooled human liver microsomes)
Conditions: 2D6 IC50 (uM), CYP enzyme inhibition
IC50 values, listed per item

# MOLECULE, IC50 [µM]
rows = [
    ("COCC(=O)N[C@@H](Cc1cccc(F)c1)[C@H](O)CN[C@H]1CC2(CCC2)Oc2ccc(C[C@H](C)F)cc21 [compound 512]", 0.5),
    ("COCC(=O)N[C@@H](Cc1cc(F)cc(F)c1)[C@H](O)CN[C@H]1CC2(CCC2)Oc2c1cc(CC(C)(C)C)nc2-n1ccnc1 [compound 494]", 1.2),
    ("COCC(=O)N[C@@H](Cc1cccc(F)c1)[C@H](O)CN[C@H]1CC2(CCC2)Oc2c(-c3ccncc3)cc(CC(C)(C)C)cc21 [Example 535]", 2.5),
    ("CC(C)(C)Cc1cnc2c(c1)[C@@H](NC[C@@H](O)[C@H](Cc1ccc3c(c1)OCO3)NC(=O)CC1CCS(=O)(=O)C1)CC1(CCC1)O2 (stereo partly drawn) [compound 778]", 8.5),
    ("CO[C@@H](C)C(=O)N[C@@H](Cc1ccc2c(c1)OCO2)[C@H](O)CN[C@H]1CC2(CCC2)Oc2ccc(C[C@@H](C)F)cc21 [compound 499]", 0.7),
    ("C#Cc1cnc2c(c1)[C@@H](NC[C@@H](O)[C@H](Cc1cc(F)cc(-c3nccs3)c1)NC(=O)COC)CC1(CCC1)O2 [compound 766]", 1.4),
    ("COCC(=O)N[C@@H](Cc1ccc(F)cc1)[C@H](O)CN[C@H]1CC2(CCC2)Oc2c(-c3ccncc3)cc(CC(C)(C)C)cc21 [compound 562]", 3.6),
    ("CC(C)(C)Cc1cnc2c(c1)[C@@H](NC[C@@H](O)[C@H](Cc1ccc(F)cc1)NC(=O)[C@H]1CCO1)CC1(CCC1)O2 [Example 440]", 8.2),
    ("COCC(=O)N[C@@H](Cc1cc(-c2nccs2)cc(-c2nccs2)c1)[C@H](O)CN[C@H]1CC2(CCC2)Oc2ncc(CC(C)(C)C)cc21 [compound 839]", 0.4),
    ("COCC(=O)N[C@@H](Cc1cccc(F)c1)[C@H](O)CN[C@H]1CC2(CCC2)Oc2c1cc(CC(C)(C)C)nc2-c1ccncc1 [compound 531]", 1.3),
    ("CC(=O)N[C@@H](Cc1cc(F)cc(F)c1)[C@H](O)CN[C@H]1CC2(CCC2)Oc2c1cc(CC(C)(C)C)nc2-c1cscn1 [compound 510]", 10.3),
    ("COCC(=O)N[C@@H](Cc1cc(F)cc(F)c1)[C@H](O)CN[C@H]1CC2(CCC2)Oc2c1cc(CC(C)(C)C)nc2Nc1cccnc1 [compound 568]", 9.3),
]

###

Target: UniProt:P56817
Sequence (P56817 46-501): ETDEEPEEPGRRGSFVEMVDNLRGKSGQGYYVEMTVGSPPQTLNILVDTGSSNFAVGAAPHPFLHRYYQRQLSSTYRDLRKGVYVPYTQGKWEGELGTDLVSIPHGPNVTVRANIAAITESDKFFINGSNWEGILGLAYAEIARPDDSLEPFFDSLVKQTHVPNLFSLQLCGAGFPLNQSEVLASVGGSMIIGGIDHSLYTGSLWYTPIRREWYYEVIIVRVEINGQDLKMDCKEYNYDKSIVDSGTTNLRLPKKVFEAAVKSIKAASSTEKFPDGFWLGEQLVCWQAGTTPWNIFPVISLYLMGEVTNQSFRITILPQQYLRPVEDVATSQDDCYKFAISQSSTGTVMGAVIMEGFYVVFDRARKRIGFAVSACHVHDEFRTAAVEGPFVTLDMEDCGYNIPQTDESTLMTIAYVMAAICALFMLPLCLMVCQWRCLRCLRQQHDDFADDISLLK
Test: In vitro enzymatic BACE FRET (fluorescence resonance energy transfer) assay;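 further: fluorescence read after 1 h with 50 nM quenched peptide substrate spanning the BACE cleavage site, in pH 4.2 acetate buffer containing 10% DMSO and nonionic detergent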
Type: biochemical
Settings: BACE enzyme assay; read-out: BACE1 FRET assay
IC50 values, listed per item

# MOLECULE_SMILES, UNIT_TAG, IC50
rows = [
    ("CO[C@H](C)C(=O)N[C@@H](Cc1ccc2c(c1)OCO2)[C@H](O)CN[C@@H]1c2cc(CC(C)(C)C)cnc2OC2(CCC2)[C@H]1F", "nM", 4770),
    ("CC(C)(C)Cc1cnc2c(c1)[C@@H](NC[C@@H](O)[C@H](Cc1ccc3c(c1)OCO3)NC(=O)[C@@H]1CCO1)CC1(CCC1)O2", "nM", 21),
    ("CC[C@@H](OC)C(=O)N[C@@H](Cc1ccc(F)cc1)[C@H](O)CN[C@H]1CC2(CCC2)Oc2ncc(CC(C)(C)C)cc21", "nM", 26),
]

The measured values listed here are drawn from patent US8163909B2.
